PROCEDURE_SUMMARY: small-molecule binders of probe aLefty1, primary screen, biochemical, small-molecule microarray, 635/667 nm fluorescence (AID 1153);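 also: score merges spot fluorescence with signal-to-noise ratio from the scanned slide images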
CONDITION: higher = more signal
Given measured composite z-score, output Fulfilled if it is greater than or equal to -0.06 and Not fulfilled if not.

| MOLECULE | ANSWER_LABEL |
| --- | --- |
| COC(=O)[C@H](C)NC(=O)CCC1CC(OC(=O)NCCc2ccc(F)cc2)CC2(CCCC(COC(=O)NCCc3ccccc3OC)O2)O1 (some centres not stated) | Not fulfilled |
| CO[C@@H]1[C@H](O)CO[C@H]1C=Cc1ccccc1 | Fulfilled |
| COC(=O)[C@H](C)NC(=O)CCC1CC(OC(=O)NCc2cccc3ccccc23)CC2(CCCC(COC(=O)NCc3cccc(C(F)(F)F)c3)O2)O1 (some centres not stated) | Fulfilled |
| CC(C)[C@@H](OCc1ccccc1)[C@H](C)C=NO[C@@H](C)c1cn([C@H](CO)Cc2ccccc2)nn1 | Fulfilled |
| COC(=O)[C@@H]1CC[C@H](C)[C@@H](c2ccc(Br)cc2)N1C(=O)C(F)(F)F | Not fulfilled |
| CCN1C(=O)[C@H]2[C@H]3[C@H](O)[C@H](O)CC(=NO[C@@H]4O[C@H](COC(C)=O)[C@@H](OC(C)=O)[C@H](OC(C)=O)[C@H]4OC(C)=O)[C@@H]3CC[C@H]2C1=O | Fulfilled |
| CC(C)=NOC(C)CN1CCCCc2nc(C)c(C)cc21 (configuration not stated) | Not fulfilled |

* * *

PROCEDURE_SUMMARY: binders of probe aFGF2 on microarray, primary screen, stem cell growth factor project, biochemical, small-molecule microarray, fluorescence 635/667 (AID 1067);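 also: measures binding of biotinylated aFGF2 protein to printed compounds on slides; z-score merges feature fluorescence and signal-to-noise across triplicate slides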
CONDITION: higher = more signal
Given measured composite z-score, output T if it is greater than or equal to -0.05 and F if not.

| MOLECULE | ANSWER_LABEL |
| --- | --- |
| O=C1C=C[C@@H](O)[C@@H]2[C@@H]3C(=O)N(c4cccc(Oc5ccccc5)c4)C(=O)[C@@H]3CC[C@@H]12 | F |
| CC(=O)OC[C@H]1O[C@H](CC=NO[C@@H](C)c2cn([C@H](CO)Cc3ccccc3)nn2)C=C[C@@H]1OC(C)=O | F |
| COC(=O)C1=C(C)N(Cc2ccccc2)C2=C3C(=O)OCC[C@@H]3[C@@](O)(C(=O)OC)C(=O)N2[C@@H]1c1ccccc1 | F |
| CCOC(=O)NN=C1C[C@@H](O)[C@@H](O)[C@@H]2[C@@H]3C(=O)N(c4ccc(F)cc4F)C(=O)[C@@H]3CC[C@H]12 | T |
| CC(C)[C@@H](OCc1ccccc1)[C@H](C)C=NO[C@H](C)c1cn([C@@H]2COC[C@H]2O)nn1 | T |
| CON=C(C)CCN1CCc2nc(-c3ccccc3)c(-c3ccccc3)cc2C1 | F |
| C=CC[C@@H]1C=C[C@H](ON=C(C)CCN2CCCc3nc(C)c(C)cc32)[C@@H](CO)O1 | T |
| C=CCOCC1CN2[C@@H](CC[C@@H](C)[C@@H]2c2ccc(Br)cc2)C(=O)O1 (some centres not stated) | F |
| O=C1[C@H]2[C@H]3[C@H](O)[C@H](O)CC(=NO[C@@H]4O[C@H](CO)[C@@H](O)[C@H](O)[C@H]4O)[C@@H]3CC[C@H]2C(=O)N1c1cccc(Oc2ccccc2)c1 | F |
| CC(C)=NO[C@H](C)c1cn([C@@H]2COC[C@H]2O)nn1 | F |
| CC(C)CON=C1C[C@@H](O)[C@@H](O)[C@@H]2[C@@H]3C(=O)N(Cc4ccc5c(c4)OCO5)C(=O)[C@@H]3CC[C@@H]12 | T |
| O=C1[C@H]2CCn3c(=O)n(Cc4cc5c(cc4Cl)OCO5)c(=O)n3[C@H]2[C@H](O)[C@@H]2O[C@H]12 | F |

* * *

PROCEDURE_SUMMARY: binders of probe aFSTL3 on microarray, primary screen, stem cell growth factor project, biochemical, small-molecule microarray, fluorescence 635/667 (AID 1064);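 also: measures binding of the biotinylated anti-FSTL3 antibody to printed compounds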
CONDITION: higher = more signal
MEASURE: composite z-score

| COMPOUND | MEASURE | OBSERVED_RESULT |
| --- | --- | --- |
| CC(C)(C)N1C(=O)[C@H]2[C@@H]3C(=CC[C@H]2C1=O)C(=O)[C@H]1O[C@H]1[C@H]3O | composite z-score | -0.293 |
| COc1ccc(OC[C@@H](CO)OC)cc1 | composite z-score | -0.306 |
| COC(=O)[C@H](C)NC(=O)CCC1CC(OC(=O)NCc2ccc3c(c2)OCO3)CC2(CCCC(COC(=O)NCCc3ccc(Cl)cc3)O2)O1 (stereo partly drawn) | composite z-score | -0.592 |

* * *

PROCEDURE_SUMMARY: basal MM1S mitochondrial membrane potential changes, profiling panel, cell-based, JC-1 fluorescence, 24 h, 100 nL compound (AID 1170); also: test concentration not given here
CONDITION: higher = more signal
MEASURE: z-score

| COMPOUND | MEASURE | OBSERVED_RESULT |
| --- | --- | --- |
| Cc1ccc(S(=O)(=O)N[C@@H]2COC(=O)CC=C[C@@H](C)[C@H](NS(=O)(=O)c3ccc(C)cc3)COC(=O)[C@H](C)NC(=O)CC=C[C@H]2C)cc1 | z-score | 1.03 |
| COC(=O)[C@@H]1CC[C@H](C)[C@@H](c2ccc(C)cc2)N1C(=O)c1ccc(C=NOC[C@H]2O[C@H](c3ccccc3)C=C[C@@H]2Oc2ccc(OC)cc2)cc1 | z-score | 0.0359 |
| Cc1cc(C)c(-c2cc([C@H](C)ON=C[C@@H](C)[C@H](OCc3ccccc3)C(C)C)on2)c(C)c1 | z-score | -0.143 |
| CC(CCN1CCCCc2nc(C)c(C)cc21)=NOC[C@@H](O)[C@H]1O[C@@H]2OC(C)(C)O[C@@H]2[C@H]1O | z-score | -0.477 |
| C#CCCCON=C1C[C@@H](O)[C@@H](O)[C@@H]2[C@@H]3C(=O)N(C4CCCCC4)C(=O)[C@@H]3CC[C@@H]12 | z-score | 0.431 |
| CC(CCC(=O)OC[C@H]1O[C@H](C#Cc2ccccc2)C=C[C@@H]1Oc1ccc(C)cc1)=NO[C@@H](C)c1cc(-c2c(C)cc(C)cc2C)no1 | z-score | 0.114 |
| CC(C)=NOC(C)CN1CCCc2nc(C)c(C)cc21 (centres undefined) | z-score | 0.226 |
| C=CCOCC1CN2[C@@H](CC[C@@H](C)[C@@H]2c2ccc(Br)cc2)C(=O)O1 (some centres undefined) | z-score | 0.672 |
| CC(C)CON=C1C[C@@H](O)[C@@H](O)[C@@H]2[C@@H]3C(=O)N(c4ccc(F)cc4F)C(=O)[C@@H]3CC[C@@H]12 | z-score | -0.425 |

* * *

ASSAY_TARGET: Dickkopf-related protein 1 (Homo sapiens) (UniProt O94907)
Sequence (O94907 whole entry, looked up): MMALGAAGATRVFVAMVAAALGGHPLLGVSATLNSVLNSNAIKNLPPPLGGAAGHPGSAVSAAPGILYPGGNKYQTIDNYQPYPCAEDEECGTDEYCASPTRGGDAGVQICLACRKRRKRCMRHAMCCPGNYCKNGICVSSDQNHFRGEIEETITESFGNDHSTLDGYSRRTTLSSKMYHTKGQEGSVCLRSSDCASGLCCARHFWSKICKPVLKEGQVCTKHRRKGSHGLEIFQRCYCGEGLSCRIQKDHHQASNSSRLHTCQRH
PROCEDURE_SUMMARY: DKK1 binders on small-molecule microarrays, primary screen, biochemical, small-molecule microarray, 635 nm fluorescence scan (AID 1106);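 also: score merges emission near 667 nm with signal to noise over three replicate slides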
CONDITION: DKK1 binding, higher = more signal
MEASURE: composite z-score

| MOLECULE | ASSAY_TARGET | OBSERVED_RESULT |
| --- | --- | --- |
| COC(=O)[C@H](C)NC(=O)CCC1CC(OC(=O)NCc2cccc3ccccc23)CC2(CCCC(COC(=O)NCCc3ccccc3OC)O2)O1 (stereo partly drawn) | Dickkopf-related protein 1 (Homo sapiens) (UniProt O94907) | 0.686 |
| COc1cccc([C@H]2Oc3ccc(OC)cc3C(=NO[C@@H](C)c3cc(-c4c(C)cc(C)cc4C)no3)[C@@H]2O)c1 | Dickkopf-related protein 1 (Homo sapiens) (UniProt O94907) | -3.26 |
| CCN1C(=O)[C@H]2[C@H]3[C@H](O)[C@H](O)CC(=NOCC(C)C)[C@H]3CC[C@H]2C1=O | Dickkopf-related protein 1 (Homo sapiens) (UniProt O94907) | 0.817 |

* * *

PROCEDURE_SUMMARY: cell viability in Huh7 cells, primary screen, cytotoxicity control for HCV replication inhibitor project, CellTiter-Glo luminescence, basal, 48 h (AID 1143);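 also: Huh7 hepatoma cells carrying a hepatitis C replication reporter with no stimulus; test concentration not given here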
CONDITION: Huh7 HCV replicon, higher = more signal, called active from +8 up or from −8 down
Given measured z-score, output condition met if it is greater than or equal to -0.5 and condition not met if not.

| COMPOUND | ANSWER_LABEL |
| --- | --- |
| CCN1C(=O)[C@H]2[C@H]3[C@H](O)[C@H](O)CC(=NOCC[C@@H]4C=C[C@H](OC(C)=O)[C@@H](COC(C)=O)O4)[C@@H]3CC[C@H]2C1=O | condition met |
| O=C1CCCC=C1C(O)C1CCCCC1 (stereo not given) | condition met |
| C=CC[C@@H]1C=CC(ON=C(C)C)[C@@H](CO)O1 (stereo not given in full) | condition met |
| CC(CCN1CCc2nc(-c3ccccc3)c(-c3ccccc3)cc2C1)=NO[C@H](C)c1cn([C@H](CO)Cc2ccccc2)nn1 | condition not met |
| O=C(NCCC[N+]1=CC=NC1c1ccccc1)N1CCCc2nc(-c3ccc(Br)cc3)ccc21 (stereo not given) | condition not met |
| CC(=O)OC[C@H]1O[C@H](CCON=C(C)CCN2CCCc3nc(C)c(C)cc32)C=C[C@@H]1OC(C)=O | condition met |
| COC(=O)[C@H](C)NC(=O)CCC1CC(OC(=O)NCCc2ccc(F)cc2)CC2(CCCC(COC(=O)NCc3ccccc3)O2)O1 (stereo not given in full) | condition met |
| CO[C@H]1COC(=O)CCC[C@H](C)[C@@H](OC)COC(=O)CC=C[C@@H]1C | condition met |
| CCOC(=O)CCN1C(=O)[C@H]2[C@H]3[C@H](O)[C@H](O)CC(=O)[C@@H]3CC[C@H]2C1=O | condition met |
| COC(=O)[C@@H]1CC[C@H](C)[C@@H](c2ccc(Br)cc2)N1 | condition met |
| C=CC[C@@H]1C=C[C@H](ON=C2C[C@@H](O)[C@@H](O)[C@@H]3[C@@H]4C(=O)N(CC)C(=O)[C@@H]4CC[C@@H]23)[C@@H](CO)O1 | condition not met |
| CCOC(=O)NN=C1C[C@@H](O)[C@@H](O)[C@@H]2[C@@H]3C(=O)N(c4ccc(F)cc4F)C(=O)[C@@H]3CC[C@H]12 | condition not met |
| CCCNC(=O)OC[C@H]1O[C@H](CCON=C[C@@H](NS(=O)(=O)c2ccc(C)cc2)[C@H](C)C=CCC(=O)OC)C=C[C@@H]1Oc1ccc(OC)cc1 | condition not met |
| O=C1C[C@@H](O)[C@@H](O)[C@@H]2[C@@H]3C(=O)N(c4ccc(F)cc4F)C(=O)[C@@H]3CC[C@H]12 | condition not met |
